Each entry below lists one item and its recorded TGI value.
System: RXF 393 renal
assayProcedure: NCI tumour cell line growth inhibition, 48 h
Write down the numeric answer in µM and omit the unit.

CCN(CC)CC(O)C1CCC(c2ccccc2)CC1 (stereo unspecified)
45.1
COc1cc2c(cc1OC)C(Cc1c3ccccc3cc3ccccc13)N(C)CC2 (stereo unspecified)
32.5

Please look at the following compound next.
In: May I ask what TGI has been recorded for `O=C1C(Cl)=C(Nc2cccc(O)c2)C(=O)N1c1cccc(Cl)c1Cl` ?
Out: 42.4

----------
Each entry below lists one item and its recorded TGI value.
Test system: HT29 colon
assayProcedure: NCI tumour cell line growth inhibition, 48 h

Consider the worked cases shown below.
COc1ccc(Cn2c(Br)c3c(c2-c2cc(OC)c(OC)c(OC)c2)CCc2sc(NC(C)=O)nc2-3)cc1
11.1 µM
CC1(C)CC[C@]2(C(=O)O)CC[C@]3(C)C(=CC[C@@H]4[C@@]5(C)CC[C@H](OC6OC(CO)C(O)C(O)C6OC6OC(CO)C(O)C(O)C6O)C(C)(C)[C@@H]5CC[C@]43C)[C@@H]2C1 (stereo not given in full)
30.2 µM
COC(=O)[C@@H]1C[C@]2(CC=C(C)C)c3ccccc3N(S(=O)(=O)c3ccccc3)[C@@H]2N1C(=O)OC
> 100 µM
COc1ccc(/C=C/C(=O)c2ccc(Nc3ccnc4cc(Cl)ccc34)cc2)cc1
> 100 µM
CC1=C(c2cc(C(=O)Nc3nccs3)nc(NC#N)n2)Sc2ccccc2N1
> 100 µM

In: May I ask what TGI has been recorded for N#CC(c1cc(Cl)ncn1)c1nc2ccccc2s1 (stereo not given) ?
Out: 23.6 µM

In: Param item: CC1OC(OC2CC(O)(C(=O)CO)Cc3c(O)c4c(c(O)c32)C(=O)c2ccccc2C4=O)CC(N)C1O (stereo not given)
Out: 0.493 µM

In: Param item: N#CC1=C(c2ccccc2)C(O)(c2ccccc2)NC1=O (stereo not given)
Out: > 100 µM

In: Param item: O=c1[nH]c(=O)n(C2CC(O)C(CO)O2)cc1C#Cc1cc(F)cc(F)c1 (stereo not given)
Out: > 100 µM
